Recorded EC50 values for a group of binders are listed next.
Target: T1, human DLL3 on SHP-77 cells (human, UniProt Q9NYJ7 27-618)
T1 construct: also called DLL3-expressing cells (SHP-77)
T1 sequence: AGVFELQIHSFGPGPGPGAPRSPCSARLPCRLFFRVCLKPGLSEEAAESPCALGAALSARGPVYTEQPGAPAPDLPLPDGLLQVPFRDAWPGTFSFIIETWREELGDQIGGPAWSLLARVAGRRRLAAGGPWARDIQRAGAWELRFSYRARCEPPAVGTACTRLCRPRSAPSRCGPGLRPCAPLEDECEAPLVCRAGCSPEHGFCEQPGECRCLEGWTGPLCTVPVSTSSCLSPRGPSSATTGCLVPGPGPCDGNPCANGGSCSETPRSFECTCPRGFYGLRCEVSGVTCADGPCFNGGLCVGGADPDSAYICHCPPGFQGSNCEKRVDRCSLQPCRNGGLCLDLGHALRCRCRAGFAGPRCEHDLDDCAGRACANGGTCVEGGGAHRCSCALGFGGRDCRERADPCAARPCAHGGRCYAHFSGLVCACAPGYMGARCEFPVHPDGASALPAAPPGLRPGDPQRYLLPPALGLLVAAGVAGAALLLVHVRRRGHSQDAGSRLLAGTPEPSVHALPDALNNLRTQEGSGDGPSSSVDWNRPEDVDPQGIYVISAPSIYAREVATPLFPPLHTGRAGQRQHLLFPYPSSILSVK
Test: flow cytometry, SHP-77 cells
Only the number, expressed in nM, is required.

>>> result_number("47E12D12-2 mouse hybridoma-derived anti-DLL3 chimeric antibody (antibody, V domains shown) VH: EVQLVESGGGLVKPGGSLKLSCAASGFTFSDYGMHWVRQAPEKGLEWVAYISSGSSTIYYADTVKGRFTISRDNAKNTLFLQMTSLRSEDTAMYYCARNSRGFAYWGQGTLVTVSA VL: DIVLIQSPTIMSASPGEKVTMTCSASSSVSSMHWYQQKSGTSPKRWIYDTSKLASGVPARFSGSGSGTSYSLTISTMEAEDAATYYCQQWNSYHLTFGAGTKLELK")
69.3
>>> result_number("45E4D7 mouse hybridoma-derived anti-DLL3 chimeric antibody (antibody, V domains shown) VH: QVQLQQPGAELVKPGTSVKLSCKASGYTFTSHWITWVKQRPGQGLEWIGDIYPISGSTNNNEKFRNKATLTVDTSSSTAYMQLSSLTSEDSAVYFCAKIITVGGAYVMDYWGQGTSVTVSS VL: DIVLTQSPVTLSVTPGDSVSLSCRASQSVRNNLHWYQQKSHESPRLLIKYVSQSISGIPSRFSGSGSGTDFTLSINSVETEDFGVYFCQQSNSWPLTFGAGTKLELK")
0.68
>>> result_number("47E12D12-1 mouse hybridoma-derived anti-DLL3 chimeric antibody (antibody, V domains shown) VH: EVQLVESGGGLVKPGGSLKLSCAASGFTFSDYGMHWVRQAPEKGLEWVAYISSGSSTIYYADTVKGRFTISRDNAKNTLFLQMTSLRSEDTAMYYCARNSRGFAYWGQGTLVTVSA VL: DIVLTQSPAIMSASPGEKVTMTCSASSSVSYMYWYQQKPGSSPRLLIYDTSNLASGVPVRFSGSGSGTSYSLTISRMEAEDAATYYCQQWSSYPRTFGGGTKLEIK")
1.45

// fetch EC50 given entry 48B6D7 mouse hybridoma-derived anti-DLL3 chimeric antibody (antibody, V domains shown) VH: QVQLQQPGAELVKPGTSVKLSCEASGYTFSNYWMQWVRQRPGQGLEWIGMILPNSDITNYNENFQTKATLTVDKSSSTAYMQLSSLTSEDSAVYYCARQARYSAMDYWGQGTSVTVSS VL: DIQMTQTTSSLSVSLGDRVTINCSASQGISNYLNWYQQKPDGTVKLLIYYTSNLHSGVPSRFSGSGSGTDYSLTISNLEPEDIATYYCQHYSKFPYTFGGGTKLEIK 0.65

// fetch EC50 given entry 39E2D11-1 mouse hybridoma-derived anti-DLL3 chimeric antibody (antibody, V domains shown) VH: QVQLQQSGAELVKPGASVKMSCKASGYTFISYWITWVKQRPGQGLEWIGDIYPGSGSTTNYNEKFKSKATLTVDTSSSTAYMQLSSLTSEDSAVYYCARETTVGGAYAMDYWGQGTSVTVSS VL: DIVLTQSPATLSVTPGDSVSLSCRASQSINNNLHWYQQKSHESPRLLIKYVSQSISGIPSRFSGSGSGTDFTLTINSVETEDFGMYFCQQTNSWPLTFGAGTKLELK 0.85
